- SYSTEM NAME: HLA-DRB1*1501 (human)
- ASSAY EXPLANATION: competition binding
- TEST CONTEXT: modification not given
pIC50: −log10 of the molar value.
# pIC50 listing for each entry below
ASSAY METRIC: pIC50

>>> value_reported("GTFQKWAAVVVPSGQ [p45*]")
6.32
>>> value_reported("HKWEAAHVAEQLRAY [p30]")
6.03
>>> value_reported("HTVQRMYGCDVGSDW [p17*]")
5.55
>>> value_reported("SQRMEPRAPWIEQEGP [p9]")
4.48
>>> value_reported("AHVAEQLRAYLEGTC [p31]")
7.59
>>> value_reported("TSVSRPGRGEPRFIA [p3]")
4.73
>>> value_reported("EDLRSWTAADMAAQT [p27]")
6.19
>>> value_reported("APWIEQEGPEYWDGE [p10]")
4.29
>>> value_reported("CDVGSDWRFLRGYHQ [p19]")
6.22
>>> value_reported("HSMRYFFTSVSRPGR [p1*]")
6.29
>>> value_reported("RRYLENGKETLQRTD [p36]")
4.16
>>> value_reported("RCWALSFYPAEITLT [p40]")
7.55
>>> value_reported("LTLRWEPSSQPTIPI [p51*]")
5.61
>>> value_reported("HRVDLGTLRGYYNQS [p13*]")
7.06
>>> value_reported("EGLPKPLTLRWEPSS [p49]")
4.30
>>> value_reported("IAVGYVDDTQFVRFD [p5]")
5.53

The values you see were collected from patent US20110038881A1.
